# testedTarget: monoclonal antibody mAB 198
# assayMethodText: peptide microarray, fluorescence, linear peptide
measurementName: relative signal [%]
Reply with a number, then the unit it belongs to.

A selection of reference data follows.
Task: Answer with reported relative signal [%] of WNPADYP [WNPADYP, linear mimotope]
Result: 20.5%

Task: Answer with reported relative signal [%] of RLHWNPADY
Result: 20.2%

Task: Answer with reported relative signal [%] of QWVDYNLKFNP
Result: 10.9%

Task: Answer with reported relative signal [%] of NPADYHG [NPADYHG, linear mimotope]
Result: 59.3%

Task: Answer with reported relative signal [%] of HWNPADY [HWNPADY, linear mimotope]
Result: 7.4%

***
Task: Answer with reported relative signal [%] of GSLRFNP [GSLRFNP, linear mimotope]
Result: 21.6%

Task: Answer with reported relative signal [%] of YNLPWNP [YNL PWNP, linear mimotope]
Result: 7.6%

Task: Answer with reported relative signal [%] of VRLRWNPADYP
Result: 56.7%

Task: Answer with reported relative signal [%] of LRLNPAD [LRLNPAD, linear mimotope]
Result: 25.2%

Task: Answer with reported relative signal [%] of RINPADY [RINPADY, linear mimotope]
Result: 12.2%

Task: Answer with reported relative signal [%] of WNPADYGHI
Result: 13.7%

Task: Answer with reported relative signal [%] of SLHWNPADY
Result: 13.6%

Task: Answer with reported relative signal [%] of QWIDVRLRYNP
Result: 13.4%

Task: Answer with reported relative signal [%] of NPADYDG [NPADYDG, linear mimotope]
Result: 10.3%

Task: Answer with reported relative signal [%] of IDVRLRFNP
Result: 15%

Task: Answer with reported relative signal [%] of NPADYGI [NPADYGI, linear mimotope]
Result: 8%

Task: Answer with reported relative signal [%] of WNPADYH [WNPADYH, linear mimotope]
Result: 9.4%

Reference source: patent US20230381328A1
